Overview of reported solubility across a group of compounds:
test: Comparative test of solubility in water (Britton-Robinson buffer); type: physicochemical; conditions: aqueous buffer; pH 7; Britton-Robinson buffer (ion strength of 0.3) at 25° C.
Test Readout: solubility

Nc1ncccc1-c1cc(Cc2ccc(OCc3cccc[n+]3COP(=O)([O-])O)cc2)no1 [Example 1, mono-trifluoroacetate] | > 70 mg/mL
Nc1ncccc1-c1cc(Cc2ccc(OCc3ccccn3)cc2)no1 [Reference Example 1] | < 0.1 mg/mL

###

test: Comparative test of solubility in water (Britton-Robinson buffer); assay type: physicochemical; details: aqueous buffer; pH 3; Britton-Robinson buffer (ion strength of 0.3) at 25° C.
Test Readout: solubility (µg/mL)

Nc1ncccc1-c1cc(Cc2ccc(OCc3ccccn3)cc2)no1 [Reference Example 1] | 400
